Target: UniProtKB Q8R2Y0
Sequence (Q8R2Y0 whole entry): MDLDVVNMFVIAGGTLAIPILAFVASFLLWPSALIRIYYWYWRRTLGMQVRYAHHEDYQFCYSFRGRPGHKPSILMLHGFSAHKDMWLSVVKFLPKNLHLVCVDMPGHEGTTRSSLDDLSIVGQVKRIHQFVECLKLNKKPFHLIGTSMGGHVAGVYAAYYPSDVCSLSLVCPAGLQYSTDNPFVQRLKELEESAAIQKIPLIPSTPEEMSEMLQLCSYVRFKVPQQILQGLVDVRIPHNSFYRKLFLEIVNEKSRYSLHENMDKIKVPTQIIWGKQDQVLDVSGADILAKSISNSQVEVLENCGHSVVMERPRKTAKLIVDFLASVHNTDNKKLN
Test: In vitro competitive ABPP, % inhibition at fixed concentration, ABHD6
Type: biochemical
Set-up: from tissue
Listing of recorded inhibition at 10 µM by entry.

Completed entries (count: 8):
O=C(ON1C(=O)CCC1=O)N1CCC(N2CCCC2=O)CC1 [Example 219] = 25 to 75%
O=C(ON1C(=O)CCC1=O)N1CCC(N2CCCCC2=O)CC1 [Example 220] = 25 to 75%
O=C(ON1C(=O)CCC1=O)N1CCN(C(c2ccc3c(c2)OC(F)(F)O3)c2ccc3c(c2)OC(F)(F)O3)CC1 [Example 150] = 25 to 75%
O=C(CN1CCC1)N1CCN(C(=O)ON2C(=O)CCC2=O)CC1 [Example 216] = < 25%
O=C(CN1CCCCC1)N1CCN(C(=O)ON2C(=O)CCC2=O)CC1 [Example 213] = < 25%
O=C(CN1CCCC1)N1CCN(C(=O)ON2C(=O)CCC2=O)CC1 [Example 214] = < 25%
O=C(ON1C(=O)CCC1=O)N1CCN(C(=O)c2cccc(Cl)c2)CC1 [Example 211] = 25 to 75%
CC(=O)N1CCN(C(=O)ON2C(=O)CCC2=O)CC1 [Example 51] = < 25%

Task: Hi! What's the reported inhibition at 10 µM for O=C(CN1CCOCC1)N1CCN(C(=O)ON2C(=O)CCC2=O)CC1 [Example 215] on UniProtKB Q8R2Y0?
Output: < 25%
